Value source: ChEMBL document CHEMBL1129982

- protocol-description: Area under the concentration-time curve from time zero to infinity in oral (5 mg/kg) fasted dogs
- Type: ADME, organism-based, Canis lupus familiaris
- experimental-parameters: dog, in vivo
measure: AUC(0-inf) (ng·h/mL)

compound="COc1ccc(C2(O)OC(=O)C(c3ccc4c(c3)OCO4)=C2Cc2cc(OC)c(OC)c(OC)c2)cc1 (stereo unspecified)" value_observed=2000

----------
- protocol-description: Area under the concentration-time curve from time zero to infinity in oral (5 mg/kg) fed dogs
- Type: ADME, organism-based, Canis lupus familiaris
- experimental-parameters: dog, in vivo
measure: AUC(0-inf) (ng·h/mL)

compound="COc1ccc(C2(O)OC(=O)C(c3ccc4c(c3)OCO4)=C2Cc2cc(OC)c(OC)c(OC)c2)cc1 (stereo unspecified) [PD-156707]" measure=AUC(0-inf) value_unit=ng·h/mL value_observed=590
